test system: OVCAR-8 ovarian; assay: NCI tumour cell line growth inhibition, 48 h; in the data active = GI50 below about 0.43 µM; inactive = the rest
Log the outcome using a class from active, inactive

Known results for compounds:
compound: COc1cc2c(/C=N\N=C(N)N)c(Cl)[nH]c2cc1C
class: inactive
//
compound: COc1cc(-c2nn3c(/C=C4/C(=O)Nc5ccccc54)c(-c4ccc(C)cc4)nc3s2)cc(OC)c1OC
class: inactive
//
compound: CN1CCN(c2ccc(C(=O)Nc3n[nH]c4ccc(Cc5cc(F)cc(F)c5)cc34)c(NC3CCOCC3)c2)CC1
class: inactive

Q: Outcome? O=P([O-])(O)OP(=O)([O-])O.[NH-][C@H]1CCCC[C@@H]1[NH-].[OH-].[OH-].[Pt+4]
Result: inactive

Q: Outcome? Cc1[nH]ncc1-c1cc2nc(C3CC4CCN3CC4)[nH]c(=O)c2s1 (stereo not given)
Result: inactive
